# Target: α2β3γ2 benzodiazepine receptor GABA(A) isoform (UniProt P18507+P47869)
# Sequence (P18507 1-475): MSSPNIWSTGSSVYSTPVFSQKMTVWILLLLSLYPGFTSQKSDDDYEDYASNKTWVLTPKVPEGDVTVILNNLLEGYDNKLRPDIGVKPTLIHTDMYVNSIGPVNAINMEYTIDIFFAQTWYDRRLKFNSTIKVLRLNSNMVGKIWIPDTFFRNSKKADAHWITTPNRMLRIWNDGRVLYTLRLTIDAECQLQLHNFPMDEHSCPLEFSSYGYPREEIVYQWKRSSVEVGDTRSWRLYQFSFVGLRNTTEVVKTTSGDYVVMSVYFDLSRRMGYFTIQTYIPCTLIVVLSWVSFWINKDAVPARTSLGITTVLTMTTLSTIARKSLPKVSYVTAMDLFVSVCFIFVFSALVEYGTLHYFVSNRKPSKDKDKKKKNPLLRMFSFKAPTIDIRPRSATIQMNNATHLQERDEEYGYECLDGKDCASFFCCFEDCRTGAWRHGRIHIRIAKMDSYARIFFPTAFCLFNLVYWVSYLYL
# Sequence (P47869 1-451): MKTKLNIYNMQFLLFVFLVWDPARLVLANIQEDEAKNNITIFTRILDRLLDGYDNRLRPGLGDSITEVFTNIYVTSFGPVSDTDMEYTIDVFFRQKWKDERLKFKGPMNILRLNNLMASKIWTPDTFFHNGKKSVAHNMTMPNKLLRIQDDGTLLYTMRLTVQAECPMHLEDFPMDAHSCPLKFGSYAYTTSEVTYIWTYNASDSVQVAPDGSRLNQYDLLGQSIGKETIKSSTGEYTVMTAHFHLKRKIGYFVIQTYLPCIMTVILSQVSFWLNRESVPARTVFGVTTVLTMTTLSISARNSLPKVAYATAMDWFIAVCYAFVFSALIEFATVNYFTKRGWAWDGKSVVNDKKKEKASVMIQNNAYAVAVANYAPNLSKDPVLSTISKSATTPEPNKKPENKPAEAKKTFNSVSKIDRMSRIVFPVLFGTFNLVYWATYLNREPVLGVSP
# Test summary: Radioligand competition binding, α2β3γ2 BzR/GABA(A) isoform
# Design: species or system human and rat
# Condition info: Table I; means of two determinations; read-out: Ki α2
pKi: −log10 of the molar value.
Parameter measured: pKi

Compound: CN1Cc2c(CCl)ncn2-c2ccc(Cl)cc2C1=O [Ligand 12b]
Experimental result: < 6.52
//
Compound: C#Cc1ccc2c(c1)C(=O)N1CC[C@@H]1c1c(-c3nc(C)no3)ncn1-2
Experimental result: < 6.00

With those in mind, consider the next compound.
pKi reported for this compound CCOCc1ncn2c1CN(C)C(=O)c1cc(Cl)ccc1-2 [Ligand 12c] : < 6.52

###

Documented Ki across a set of molecules
# Target: α6β3γ2 benzodiazepine receptor GABA(A) isoform (UniProt P18507+Q16445)
# Test summary: Radioligand competition binding, α6β3γ2 BzR/GABA(A) isoform
# Design: species or system human and rat
# Condition info: Table 2; means of two determinations; read-out: Ki α6

Examples from the recorded data:
Smiles entry: CCOC(=O)c1ncoc1-c1ncn2c1[C@@H]1CCN1C(=O)c1cc(Br)ccc1-2
Experimental result: > 2000 nM
//
Smiles entry: C#Cc1ccc2c(c1)C(=O)N1CC[C@H]1c1c(-c3ocnc3C(=O)OCC)ncn1-2
Experimental result: > 1000 nM
//
Smiles entry: C#Cc1ccc2c(c1)C(=O)N1CC[C@@H]1c1c(-c3nc(C)no3)ncn1-2
Experimental result: > 1000 nM

With those in mind, consider the next molecule.
Ki reported for this molecule `CCOC(=O)c1ncoc1-c1ncn2c1[C@@H]1CCN1C(=O)c1cc(C#C[Si](C)(C)C)ccc1-2` : > 1000 nM

###

# Target: α1β3γ2 benzodiazepine receptor GABA(A) isoform (UniProt P14867+P18507)
# Test summary: Radioligand competition binding, α1β3γ2 BzR/GABA(A) isoform
# Design: Ki α1; means of two determinations; Ki α1; α1; species or system human and rat
# Condition info: Table 2; means of two determinations; read-out: Ki α1
Parameter measured: Ki

Examples from the recorded data:
Compound: C#Cc1ccc2c(c1)C(=O)N1CC[C@H]1c1c(-c3ocnc3C(=O)OCC)ncn1-2 [RY069]
Ki: 692 nM

Compound: C#Cc1ccc2c(c1)C(=O)N1CC[C@@H]1c1c(-c3nc(C)no3)ncn1-2 [RY-I-29]
Ki: > 1000 nM

Compound: CCOC(=O)c1ncoc1-c1ncn2c1[C@@H]1CCN1C(=O)c1cc(Br)ccc1-2 [RY062]
Ki: > 1000 nM

With those in mind, consider the next compound.
Ki reported for this compound CCOC(=O)c1ncoc1-c1ncn2c1[C@@H]1CCN1C(=O)c1cc(C#C[Si](C)(C)C)ccc1-2 [RY068] : > 500 nM

###

Documented pKi across a set of compounds
# Target: α1β3γ2 benzodiazepine receptor GABA(A) isoform (UniProt P14867+P18507)
# Test summary: Radioligand competition binding, α1β3γ2 BzR/GABA(A) isoform
# Design: Ki α1; means of two determinations; Ki α1; α1; species or system human and rat
# Condition info: read-out: Ki α1; Table I; means of two determinations
pKi: −log10 of the molar value.

Smiles entry: CCOC(=O)c1ncn2c1CN=C(c1ccccc1)c1cc(-c3ccccc3)ccc1-2
Experimental result: < 5.70

pKi reported for this compound `COCc1ncn2c1CN(C)C(=O)c1cc(Cl)ccc1-2` : < 6.52

###

# Target: α3β3γ2 benzodiazepine receptor GABA(A) isoform (UniProt P18507+P34903)
# Test summary: Radioligand competition binding, α3β3γ2 BzR/GABA(A) isoform
# Parameters: species or system human and rat
# Condition info: Table I; means of two determinations; read-out: Ki α3
pKi: −log10 of the molar value.
Documented pKi across a set of compounds

Compound: CCOCc1ncn2c1CN(C)C(=O)c1cc(Cl)ccc1-2 [Ligand 12c]
pKi: < 6.52
--
Compound: C#Cc1ccc2c(c1)C(=O)N1CC[C@@H]1c1c(-c3nc(C)no3)ncn1-2
pKi: < 6.00

The compound CN1Cc2c(CCl)ncn2-c2ccc(Cl)cc2C1=O [Ligand 12b] , tested on α3β3γ2 benzodiazepine receptor GABA(A) isoform (UniProt P18507+P34903), showed pKi of < 6.52

###

# Target: α2β3γ2 benzodiazepine receptor GABA(A) isoform (UniProt P18507+P47869)
# Sequence (P18507 1-475): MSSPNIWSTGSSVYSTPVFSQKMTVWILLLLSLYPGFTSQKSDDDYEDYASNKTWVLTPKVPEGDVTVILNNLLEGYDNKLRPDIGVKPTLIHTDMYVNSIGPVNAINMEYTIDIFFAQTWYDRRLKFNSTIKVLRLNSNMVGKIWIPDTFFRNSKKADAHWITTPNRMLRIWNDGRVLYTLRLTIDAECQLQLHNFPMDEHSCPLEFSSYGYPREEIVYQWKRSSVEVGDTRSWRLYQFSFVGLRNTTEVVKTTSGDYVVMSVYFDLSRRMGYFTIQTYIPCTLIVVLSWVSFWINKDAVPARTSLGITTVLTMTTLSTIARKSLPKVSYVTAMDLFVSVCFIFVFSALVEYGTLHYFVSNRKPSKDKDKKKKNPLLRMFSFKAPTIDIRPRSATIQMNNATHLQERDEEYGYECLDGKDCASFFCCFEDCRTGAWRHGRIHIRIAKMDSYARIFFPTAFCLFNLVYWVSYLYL
# Sequence (P47869 1-451): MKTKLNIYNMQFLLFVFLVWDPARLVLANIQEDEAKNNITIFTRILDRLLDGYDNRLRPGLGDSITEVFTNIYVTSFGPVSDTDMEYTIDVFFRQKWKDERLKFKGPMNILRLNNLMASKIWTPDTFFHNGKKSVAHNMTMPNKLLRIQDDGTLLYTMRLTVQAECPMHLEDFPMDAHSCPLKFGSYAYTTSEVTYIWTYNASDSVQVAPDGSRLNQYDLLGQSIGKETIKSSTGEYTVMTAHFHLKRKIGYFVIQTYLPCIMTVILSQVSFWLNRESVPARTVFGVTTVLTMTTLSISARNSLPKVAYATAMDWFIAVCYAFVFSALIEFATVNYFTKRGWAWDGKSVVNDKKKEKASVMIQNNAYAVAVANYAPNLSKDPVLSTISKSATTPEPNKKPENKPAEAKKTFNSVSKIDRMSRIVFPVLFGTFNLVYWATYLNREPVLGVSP
# Test summary: Radioligand competition binding, α2β3γ2 BzR/GABA(A) isoform
# Design: species or system human and rat
# Condition info: read-out: Ki α2; Table I; means of two determinations
Parameter measured: Ki

Smiles entry: COCc1ncn2c1CN(C)C(=O)c1cc(Cl)ccc1-2
Experimental result: > 300 nM

With those in mind, consider the next molecule.
The molecule `CCOC(=O)c1ncn2c1CN=C(c1ccccc1)c1cc(-c3ccccc3)ccc1-2` , tested on α2β3γ2 benzodiazepine receptor GABA(A) isoform (UniProt P18507+P47869), showed Ki of > 2000 nM

Cited source for all entries: patent US7595395B2
